- protocol.details: Aqueous solubility of compound
- Format: physicochemical
- recorded.conditions: buffer
quantity.measured: solubility

Consider the reported solubility for these compounds:
{"columns": ["smiles.data", "solubility"],
 "data": [
  ["CS(=O)(=O)c1c(CCc2ccccc2)c2cc(OCC(=O)NCc3ccc(Cl)c(Cl)c3)ccc2[nH]c1=O", "Insoluble"],
  ["CS(=O)(=O)c1c(CCc2ccccc2)c2cc(OCC(=O)NCC3CC3)ccc2[nH]c1=O", "Insoluble"],
  ["Cn1c(=O)c(S(C)(=O)=O)c(CCc2ccccc2)c2cc(OCC(=O)NCc3ccc(Cl)c(Cl)c3)ccc21", "Insoluble"],
  ["CS(=O)(=O)c1c(CCc2ccccc2)c2cc(OCC(=O)NCc3ccccc3)ccc2[nH]c1=O", "Insoluble"],
  ["CN(Cc1ccc(Cl)c(Cl)c1)C(=O)COc1ccc2[nH]c(=O)c(S(C)(=O)=O)c(CCc3ccccc3)c2c1", "Insoluble"]
]}

Ask: Looking for the measured solubility of COCCCNC(=O)COc1ccc2[nH]c(=O)c(S(C)(=O)=O)c(CCc3ccccc3)c2c1 , can you help?
Reply: Insoluble

Ask: Same again, this time with COc1ccc2[nH]c(=O)c(S(C)(=O)=O)c(CCc3ccccc3)c2c1
Reply: Insoluble

Ask: Same again, this time with CS(=O)(=O)c1c(CCc2ccccc2)c2cc(OCC(=O)Nc3ccccc3)ccc2[nH]c1=O
Reply: Insoluble
